src = patent US20260248892A1

Each entry below lists one item and its recorded Rat IR phosphorylation [EC50 nM] mean value.
Target: Rat IR (rat, UniProt P15127 27-1383)
Sequence (P15127 27-1383): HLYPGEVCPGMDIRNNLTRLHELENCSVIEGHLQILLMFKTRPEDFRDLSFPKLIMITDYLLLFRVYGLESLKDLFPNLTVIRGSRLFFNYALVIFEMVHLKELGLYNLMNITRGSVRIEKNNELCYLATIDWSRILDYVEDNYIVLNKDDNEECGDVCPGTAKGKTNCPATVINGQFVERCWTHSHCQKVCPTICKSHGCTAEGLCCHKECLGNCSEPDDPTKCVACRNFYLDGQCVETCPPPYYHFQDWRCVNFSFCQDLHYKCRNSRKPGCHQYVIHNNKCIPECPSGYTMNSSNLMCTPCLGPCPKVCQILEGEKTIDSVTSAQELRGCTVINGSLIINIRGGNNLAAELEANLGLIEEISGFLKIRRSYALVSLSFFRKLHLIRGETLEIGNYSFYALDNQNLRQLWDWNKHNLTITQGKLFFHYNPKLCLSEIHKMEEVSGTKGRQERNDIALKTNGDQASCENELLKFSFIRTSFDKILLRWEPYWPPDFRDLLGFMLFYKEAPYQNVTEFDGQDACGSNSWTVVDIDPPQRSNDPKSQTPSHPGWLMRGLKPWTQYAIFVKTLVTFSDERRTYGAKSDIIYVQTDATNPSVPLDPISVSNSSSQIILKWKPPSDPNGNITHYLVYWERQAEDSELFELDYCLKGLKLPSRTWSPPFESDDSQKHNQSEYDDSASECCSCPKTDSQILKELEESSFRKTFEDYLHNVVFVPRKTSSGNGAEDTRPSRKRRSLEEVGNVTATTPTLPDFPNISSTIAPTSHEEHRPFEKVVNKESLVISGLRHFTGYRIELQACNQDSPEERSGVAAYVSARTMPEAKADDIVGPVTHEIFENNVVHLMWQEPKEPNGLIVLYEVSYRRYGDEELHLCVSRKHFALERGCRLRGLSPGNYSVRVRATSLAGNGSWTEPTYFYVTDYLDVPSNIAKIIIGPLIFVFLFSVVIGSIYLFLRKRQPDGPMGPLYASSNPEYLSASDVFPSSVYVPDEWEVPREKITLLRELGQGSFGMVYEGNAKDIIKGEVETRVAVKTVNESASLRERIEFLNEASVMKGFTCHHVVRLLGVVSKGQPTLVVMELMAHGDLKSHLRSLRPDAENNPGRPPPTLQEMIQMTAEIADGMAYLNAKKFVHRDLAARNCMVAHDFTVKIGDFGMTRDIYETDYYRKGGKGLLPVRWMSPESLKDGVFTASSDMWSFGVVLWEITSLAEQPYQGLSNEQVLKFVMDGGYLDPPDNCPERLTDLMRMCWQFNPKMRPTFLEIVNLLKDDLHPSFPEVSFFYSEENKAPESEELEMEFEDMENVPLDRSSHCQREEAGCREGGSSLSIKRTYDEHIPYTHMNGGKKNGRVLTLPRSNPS
Assay: cell-based or functional assay
Expressed in nM, but write only the number.

scl-Fc fusion protein INS023 (Fc fusion) SFVNQHLCGSHLVEALELVCGERGFHYTPKTGSYPGGVGIVEQCCTSICSLSQLENYCGGEAEDLQVGQVELGGGPGAGSLQPEGSLQGGPSVFLFPPKPKDTLMISRTPEVTCVVVDVSHEDPEVKFNWYVDGVEVHNAKTKPREEQYNSTYRVVSVLTVLHQDWLNGKEYKCKVSNKALPAPIEKTISKAKGQPREPQVYTLPPSRDELTKNQVSLTCLVKGFYPSDIAVEWESNGQPENNYKTTPPVLDSDGSFFLYSKLTVDKSRWQQGNVFSCSVMHEALHNHYTQKSLSLSPGGGGGSAESKYGPPCPPCPA = 381

Please examine the following record next.
For the binder shown here, scl-Fc fusion protein INS005 (Fc fusion) SFVNQHLCGSHLVEALHLVCGERGFAYTDKTEEYPGDVGIVEQCCTSICSLEQLENYCGGEAEDLQVGQVELGGGPGAGSLQPEGSLQGGPSVFLFPPKPKDTLMISRTPEVTCVVVDVSHEDPEVKFNWYVDGVEVHNAKTKPREEQYNSTYRVVSVLTVLHQDWLNGKEYKCKVSNKALPAPIEKTISKAKGQPREPQVYTLPPSRDELTKNQVSLTCLVKGFYPSDIAVEWESNGQPENNYKTTPPVLDSDGSFFLYSKLTVDKSRWQQGNVFSCSVMHEALHNHYTQKSLSLSPGGGGGSAESKYGPPCPPCPA , give the reported Rat IR phosphorylation [EC50 nM] mean.
1570
